Tested on: OVCAR-5 ovarian
Assay Info: NCI tumour cell line growth inhibition, 48 h
Measured GI50 of individual entries

[N-]=[N+]=Nc1ncc(-c2ccc(C(F)(F)F)cc2)c(NC2CCCCCC2)n1 | > 10 µM
COc1ccc(C2=NNC(c3ccc(-c4ccc(OC)cc4[N+](=O)[O-])o3)C2)cc1 (stereo not given) | > 100 µM
Cc1ccc(NC(=O)c2ccnc(C(F)(F)F)c2)cc1-c1cc(OCCO)nc(N2CCOCC2)c1 | 1.09 µM
COc1cc(C)cc2c1OC(c1ccccc1)CC2=O (stereo not given) | > 100 µM
O=C(CNC(=O)c1cccc2ccccc12)Nc1ccccc1Oc1cccc(O)c1 | > 25 µM

Now for another entry.
Exercise: Could you share what GI50 was measured for N#C/C(=C\c1cn(-c2ccccc2)c2ccccc12)C(=O)O , tested on OVCAR-5 ovarian?
Key: 95.5 µM

* * *

Measured TGI of individual entries
Test system: SK-MEL-28 melanoma
Assay Info: NCI tumour cell line growth inhibition, 48 h

CCOC(=O)/C(C#N)=C(O)/C(=C/c1ccccc1Cl)NC(=O)c1ccccc1 | > 100 µM
C/C(C=O)=C1\C(O)C[C@]1(C)C1CC(C)(C)CC1O (stereo not given in full) | > 100 µM
O=C(O)C(/C=C/c1ccco1)=N\Nc1nc(-c2ccc(Cl)cc2)cs1 | > 50 µM
COc1c(O)cc(/C=C/c2cc(O)cc3c2[C@@]2(C(=O)O3)c3c(O)cc(O)cc3OC2c2cccc(O)c2)cc1O (stereo not given in full) | > 100 µM

Exercise: # TGI lookup, item CC(C)=CCC/C(C)=C/Cc1cc(/C=C/c2cc(O)c(CC=C(C)C)c(O)c2)cc(O)c1O
Key: 17.5 µM

Exercise: # TGI lookup, item CC1C2CC(C(C3C(=O)C4CC3C(C)(C)C4C)C2=O)C1(C)C (stereo not given)
Key: > 100 µM

Exercise: # TGI lookup, item O=c1c2cc(I)ccc2nc(-c2cccs2)n1Nc1ccccc1
Key: > 100 µM

Exercise: # TGI lookup, item COc1ccc(C2CC(=O)Nc3c2c(C)nn3-c2nc3ccccc3[nH]2)cc1 (stereo not given)
Key: > 55.9 µM

* * *

Measured TGI of individual entries
System: K-562 leukemia
Assay Info: NCI tumour cell line growth inhibition, 48 h

Example compounds with recorded TGI:
O=c1c2cc(I)ccc2nc(-c2cccs2)n1Nc1ccccc1 | 22.9 µM
C/C(=N\NC(=S)N(C)C)c1ncc[nH]1 | 21.2 µM
CC(=O)OC1[C@H]2c3cc4c(cc3CN3CCC(C[C@@H]1OC(C)=O)C23)OCO4 (some centres undefined) | > 75 µM
CC(=O)c1c2c(cc3c1CC1(Cc4cc5c(cc4C1)CCC5)C3)CCC2 | > 100 µM
COc1nccc(-c2c(-c3ccc(F)cc3)ncn2C2CCC(O)CC2)n1 (centres undefined) | > 100 µM
Clc1ccc(C2=Nc3ccccc3SC(c3ccc(Cl)c(Cl)c3)C2)c(Cl)c1 (centres undefined) | 22.3 µM

Exercise: Could you share what TGI was measured for CN1CC=C(OP(=O)(NCc2ccccc2)N(CCCl)CCCl)CC1 (centres undefined) , tested on K-562 leukemia?
Key: > 100 µM

Exercise: Could you share what TGI was measured for CCOc1ccc(NCC(=O)N2CC(=O)Nc3ccccc32)cc1 , tested on K-562 leukemia?
Key: > 100 µM

Exercise: Could you share what TGI was measured for CCOc1ccc(C2c3[nH]c4ccccc4c3CCN2C(=O)c2cccs2)cc1 (centres undefined) , tested on K-562 leukemia?
Key: > 100 µM

Exercise: Could you share what TGI was measured for COc1ccc2oc(=N)c(C(N)=S)cc2c1 , tested on K-562 leukemia?
Key: > 100 µM

Exercise: Could you share what TGI was measured for O=C1CCC(c2nc3ccccc3o2)C(=O)N1 (centres undefined) , tested on K-562 leukemia?
Key: > 100 µM

Exercise: Could you share what TGI was measured for Cc1ccc(S(=O)(=O)N(c2ccccc2F)C2CCCCC2O)cc1 (centres undefined) , tested on K-562 leukemia?
Key: > 100 µM

Exercise: Could you share what TGI was measured for S=C(Nc1ccccc1)c1ccccn1 , tested on K-562 leukemia?
Key: > 100 µM

Exercise: Could you share what TGI was measured for CC(SC1=CC(=O)c2c(Cl)ccc(O)c2C1=O)C(=O)O (centres undefined) , tested on K-562 leukemia?
Key: > 100 µM

Exercise: Could you share what TGI was measured for O=C(O)CC(Cc1ccc2c(c1)OCO2)C(=O)O (centres undefined) , tested on K-562 leukemia?
Key: > 100 µM

Exercise: Could you share what TGI was measured for Clc1nc(Cl)c2ncn(C/C=C\Cn3cnc4c(Cl)nc(Cl)nc43)c2n1 , tested on K-562 leukemia?
Key: > 100 µM

* * *

Test system: COLO 205 colon
Assay Info: NCI tumour cell line growth inhibition, 48 h
Quantity: TGI

Example molecules with recorded TGI:
O=C(Cc1ccccc1)N/N=C(/CCN1CCCC1)CC(c1ccccc1)c1c(O)c2ccccc2oc1=O (configuration not stated) | 57.5 µM
CCN(CC)CCC(=O)Nc1cccc2c1C(=O)c1c(c(O)c3ccccc3c1O)C2=O | > 100 µM
FC(F)(F)c1ccc2c(c1)N(CCCN1CCN(C3CC3)CC1)c1ccccc1S2 | 21.5 µM

Exercise: # TGI lookup, item Cc1sc2ncnc(Sc3nc4ccccc4[nH]3)c2c1C
Key: > 100 µM

Exercise: # TGI lookup, item COc1ccc(NC(=O)C2=C(SC)C(C#N)C(=O)N=C2N)cc1 (configuration not stated)
Key: > 100 µM

Exercise: # TGI lookup, item C/C(C=O)=N\Nc1cc(C)c2ccccc2n1
Key: 33.2 µM

Exercise: # TGI lookup, item Cc1ccc(S(=O)(=O)N(c2ccccc2F)C2CCCCC2O)cc1 (configuration not stated)
Key: 71.3 µM

* * *

Test system: KM20L2 colon
Assay Info: NCI tumour cell line growth inhibition, 48 h
Quantity: TGI (µM)
Give the value in µM but do not write µM after it.

Exercise: # TGI lookup, item CCc1cc(Cc2cc(CC)c(NC(=O)C3=CC(=O)CC(c4ccc(OC)cc4)O3)c(CC)c2Cl)c(Cl)c(CC)c1NC(=O)C1=CC(=O)CC(c2ccc(OC)cc2)O1 (stereo not given)
Key: 63.4

Exercise: # TGI lookup, item C=CCOc1cc2c(cc1C(C)c1ccc(OC)cc1)OCO2 (stereo not given)
Key: 1.21

* * *

Tested on: HOP-92 NSCLC
Assay Info: NCI tumour cell line growth inhibition, 48 h; in the data active = GI50 below about 0.43 µM; inactive = the rest
Respond only with the outcome that fits, drawn from active, inactive

Nc1nc(-n2cccn2)nc(-n2cccn2)c1Br | inactive
N#Cc1nc(-c2cccc(Br)c2)cc(-c2ccc(Nc3nc(N4CCCCC4)nc(N4CCCCC4)n3)cc2)c1N | inactive
OCCNc1nc(NCCO)nc(Nc2ccc(C3=NN(c4cc(Cl)cc(Cl)c4)C(c4ccc(Cl)cc4)C3)cc2)n1 (centres undefined) | inactive
COc1cc(/C=C2\CCCC3=C2NC(N)=NC3c2cc(OC)c(OC)c(OC)c2)cc(OC)c1OC (centres undefined) | inactive
N#Cc1c(NC(=O)c2cccs2)[n+]([O-])c2ccccc2[n+]1[O-] | inactive

Exercise: Could you kindly confirm the outcome this assay logged for O=c1cc/c(=N\Nc2ccccc2)c(=O)/c1=N/Nc1ccccc1 ?
Key: inactive

Exercise: Could you kindly confirm the outcome this assay logged for COc1cc(N2CCC(N(C)C)CC2)ccc1Nc1ncc(Cl)c(Nc2ccccc2P(C)(C)=O)n1 ?
Key: active

Exercise: Could you kindly confirm the outcome this assay logged for O=C(Nc1ccccc1Cl)c1cnc2ccc(C3CCNCC3)cn12 ?
Key: inactive

Exercise: Could you kindly confirm the outcome this assay logged for C[C@]12CC[C@H]3[C@@H](CC=C4C[C@@H](O)CC[C@@]43C)[C@@H]1C/C(=C\c1cccc(OCCN3CCOCC3)c1)[C@@H]2O ?
Key: inactive

Exercise: Could you kindly confirm the outcome this assay logged for C=C1C(=O)O[C@H]2[C@H]1CC/C(COC(=O)NCCc1ccc(OC)cc1)=C\CC[C@@]1(C)O[C@@H]21 ?
Key: inactive

Exercise: Could you kindly confirm the outcome this assay logged for Clc1cc(Cl)cc(N2N=C(c3cccc(Nc4ccncc4)c3)CC2c2ccccc2)c1 (centres undefined) ?
Key: inactive

Exercise: Could you kindly confirm the outcome this assay logged for CCOC(=O)c1sc(=S)c2c(C(=O)c3ccccc3)c(C(=O)c3ccccc3)sc2c1C(=O)OCC ?
Key: inactive

Exercise: Could you kindly confirm the outcome this assay logged for CCCCCC(=O)N1c2ccccc2NC2=C(C(=O)CC(c3ccc(OC)c(OC)c3)C2)C1c1ccc(C(F)(F)F)cc1 (centres undefined) ?
Key: inactive

Exercise: Could you kindly confirm the outcome this assay logged for CCN(CC)CCC(=O)Nc1cccc2c1C(=O)c1c(c(O)c3ccccc3c1O)C2=O ?
Key: active
